Test system: 454973-116-R2-J3-PDC spheroids, percent test/control viability
Assay: Anticancer human tumor 454973-116-R2-J3-PDC patient-derived pancreatic carcinoma cell line growth inhibition [CLK]
Conditions: curve of first compound; second compound 0.316 µM; spheroids with HUVEC and MSC
pIC50: −log10 of the molar value.
PARAMETER_MEASURED: pIC50

Incoming: What pIC50 value was documented for this molecule, CC1(C)CCC(CN2CCN(c3ccc(C(=O)NS(=O)(=O)c4ccc(NCC5CCOCC5)c([N+](=O)[O-])c4)c(Oc4cnc5[nH]ccc5c4)c3)CC2)=C(c2ccc(Cl)cc2)C1 + CN1CCN(c2cc(C(=O)Nc3cc4cc(-c5cnn(C)c5)ccc4cn3)ccn2)CC1 ?
Outgoing: > 7.50

Incoming: Quick one: COC1C=CCC(C)C(C)S(=O)(=O)NC(=O)c2ccc3c(c2)N(CC2CCC21)CC1(CCCc2cc(Cl)ccc21)CO3 (stereo not given) + CN1CCN(c2cc(C(=O)Nc3cc4cc(-c5cnn(C)c5)ccc4cn3)ccn2)CC1
Outgoing: > 7.50

Incoming: Input NC(=O)C(=Cn1cnc(-c2cc(C(F)(F)F)cc(C(F)(F)F)c2)n1)c1cncnc1 + CN1CCN(c2cc(C(=O)Nc3cc4cc(-c5cnn(C)c5)ccc4cn3)ccn2)CC1
Outgoing: > 8.02

Incoming: Let us now turn to CC(C)CC(NC(=O)C(Cc1ccccc1)NC(=O)c1cnccn1)B(O)O (stereo not given) + CNC(=O)c1ccc(Nc2nc(OC3CCCC3)c3c(-c4ccc5nc(C)oc5c4)c[nH]c3n2)c(OC)c1
Outgoing: 8.97

Incoming: Also CC(CO)NC(=O)c1cc(-c2ccc(Cl)cc2)nn(-c2cnn(C)c2)c1=O (stereo not given) + CN1CCN(c2cc(C(=O)Nc3cc4cc(-c5cnn(C)c5)ccc4cn3)ccn2)CC1 ?
Outgoing: > 7.50

Incoming: Entry COc1ccc([C@@H](O)c2cc(-c3ncnc4cc(N5CCOCC5)ccc34)c(F)cc2Cl)nn1 + CNC(=O)c1ccc(Nc2nc(OC3CCCC3)c3c(-c4ccc5nc(C)oc5c4)c[nH]c3n2)c(OC)c1 please
Outgoing: > 7.50

Incoming: Ok, now Nc1ccccc1NC(=O)c1ccc(CNC(=O)OCc2cccnc2)cc1 + CN1CCN(c2cc(C(=O)Nc3cc4cc(-c5cnn(C)c5)ccc4cn3)ccn2)CC1
Outgoing: > 7.50

Incoming: Let us now turn to C#Cc1c(F)ccc2cc(O)cc(-c3ncc4c(N5CC6CCC(C5)N6)nc(OCC56CCCN5CC(F)C6)nc4c3F)c12 (stereo not given) + CNC(=O)c1ccc(Nc2nc(OC3CCCC3)c3c(-c4ccc5nc(C)oc5c4)c[nH]c3n2)c(OC)c1
Outgoing: > 7.50

Incoming: Would you mind doing COc1c(OCCCN2CCOCC2)ccc2c3n(c(=NC(=O)c4cnc(N)nc4)nc12)CCN3 + CNC(=O)c1ccc(Nc2nc(OC3CCCC3)c3c(-c4ccc5nc(C)oc5c4)c[nH]c3n2)c(OC)c1 as well?
Outgoing: 7.75

Incoming: Try CCCS(=O)(=O)Nc1ccc(F)c(C(=O)c2c[nH]c3ncc(-c4ccc(Cl)cc4)cc23)c1F + CNC(=O)c1ccc(Nc2nc(OC3CCCC3)c3c(-c4ccc5nc(C)oc5c4)c[nH]c3n2)c(OC)c1 next.
Outgoing: 7.50

Incoming: Try CCc1c2c(nc3ccc(O)cc13)-c1cc3c(c(=O)n1C2)COC(=O)[C@]3(O)CC + CNC(=O)c1ccc(Nc2nc(OC3CCCC3)c3c(-c4ccc5nc(C)oc5c4)c[nH]c3n2)c(OC)c1 next.
Outgoing: > 8.50

Incoming: Request: CCCS(=O)(=O)Nc1ccc(F)c(C(=O)c2c[nH]c3ncc(-c4ccc(Cl)cc4)cc23)c1F + CN1CCN(c2cc(C(=O)Nc3cc4cc(-c5cnn(C)c5)ccc4cn3)ccn2)CC1
Outgoing: > 7.50

Incoming: Request: C=C(F)C(=O)N1CCN(c2nc(OCC3CCCN3C)nc3c2CCN(c2cccc4cccc(Cl)c24)C3)CC1CC#N (stereo not given) + CNC(=O)c1ccc(Nc2nc(OC3CCCC3)c3c(-c4ccc5nc(C)oc5c4)c[nH]c3n2)c(OC)c1
Outgoing: > 7.50

Incoming: And for Nc1ccn(C2OC(CO)C(O)C2(F)F)c(=O)n1 (stereo not given) + CNC(=O)c1ccc(Nc2nc(OC3CCCC3)c3c(-c4ccc5nc(C)oc5c4)c[nH]c3n2)c(OC)c1 ?
Outgoing: > 7.50

Incoming: What do you get for Cn1ncnc1[C@H]1c2n[nH]c(=O)c3cc(F)cc(c23)N[C@@H]1c1ccc(F)cc1 + CNC(=O)c1ccc(Nc2nc(OC3CCCC3)c3c(-c4ccc5nc(C)oc5c4)c[nH]c3n2)c(OC)c1 ?
Outgoing: > 9.50

Incoming: Now the molecule CC(Nc1ccc2c(c1)OCCn1cc(N3C(=O)OCC3C(F)F)nc1-2)C(N)=O (stereo not given) + CNC(=O)c1ccc(Nc2nc(OC3CCCC3)c3c(-c4ccc5nc(C)oc5c4)c[nH]c3n2)c(OC)c1
Outgoing: 6.33

Incoming: // query: CC(=O)O[C@H]1C(=O)[C@@]2(C)[C@H]([C@H](OC(=O)c3ccccc3)[C@]3(O)C[C@H](OC(=O)[C@H](O)[C@@H](NC(=O)c4ccccc4)c4ccccc4)C(C)=C1C3(C)C)[C@]1(OC(C)=O)CO[C@@H]1C[C@@H]2O + CN1CCN(c2cc(C(=O)Nc3cc4cc(-c5cnn(C)c5)ccc4cn3)ccn2)CC1
Outgoing: > 7.50

Incoming: Also O=C(c1cc(Cc2n[nH]c(=O)c3ccccc23)ccc1F)N1CCN(C(=O)C2CC2)CC1 + CN1CCN(c2cc(C(=O)Nc3cc4cc(-c5cnn(C)c5)ccc4cn3)ccn2)CC1 ?
Outgoing: > 7.50

Incoming: // same read-out, input: COc1cccc2c1C(=O)c1c(O)c3c(c(O)c1C2=O)CC(O)(C(=O)CO)CC3OC1CC(N)C(O)C(C)O1 (stereo not given) + CN1CCN(c2cc(C(=O)Nc3cc4cc(-c5cnn(C)c5)ccc4cn3)ccn2)CC1
Outgoing: > 7.50

Incoming: Follow-up item: C=C(F)C(=O)N1CCN(c2nc(OCC3CCCN3C)nc3c2CCN(c2cccc4cccc(Cl)c24)C3)CC1CC#N (stereo not given) + CN1CCN(c2cc(C(=O)Nc3cc4cc(-c5cnn(C)c5)ccc4cn3)ccn2)CC1
Outgoing: > 7.50

====

Could you please report measured viability, T/C for the items listed next?
Test system: 454973-116-R2-J3-PDC spheroids, percent test/control viability
Experiment: Anticancer human tumor 454973-116-R2-J3-PDC cell line growth inhibition [CLK];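 also: spheroids exposed to compounds for 7 days before readout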
Details: second compound 1 µM; first compound 0.1 µM; stronger effect = lower value; spheroids with HUVEC and MSC
Description: A high-throughput screen of multi-cell type tumor spheroids was designed to identify active combinations of […] and targeted small molecules. Complex spheroids include a stromal component modeled by human endothelial cells (HUVEC) and fibroblasts modeled by human mesenchymal stem cells (MSCs). […] Compounds. […] If the clinical Cmax for an agent had not been determined, the highest concentration tested was 10 microM. […]

Incoming: For the molecule shown here, CC1(C)CCC(CN2CCN(c3ccc(C(=O)NS(=O)(=O)c4ccc(NCC5CCOCC5)c([N+](=O)[O-])c4)c(Oc4cnc5[nH]ccc5c4)c3)CC2)=C(c2ccc(Cl)cc2)C1 + CNC(=O)c1ccc(Nc2nc(OC3CCCC3)c3c(-c4ccc5nc(C)oc5c4)c[nH]c3n2)c(OC)c1 , give the reported viability, T/C.
Outgoing: 26.2%

Incoming: // query: C#Cc1c(F)ccc2cc(O)cc(-c3ncc4c(N5CC6CCC(C5)N6)nc(OCC56CCCN5CC(F)C6)nc4c3F)c12 (stereo not drawn) + CNC(=O)c1ccc(Nc2nc(OC3CCCC3)c3c(-c4ccc5nc(C)oc5c4)c[nH]c3n2)c(OC)c1
Outgoing: 12.7%

Incoming: Then CC(CO)NC(=O)c1cc(-c2ccc(Cl)cc2)nn(-c2cnn(C)c2)c1=O (stereo not drawn) + CNC(=O)c1ccc(Nc2nc(OC3CCCC3)c3c(-c4ccc5nc(C)oc5c4)c[nH]c3n2)c(OC)c1 ?
Outgoing: 32.9%

====

Give viability, T/C for every item shown.
Test system: 454973-116-R2-J3-PDC spheroids, percent test/control viability
Assay: Anticancer human tumor 454973-116-R2-J3-PDC cell line growth inhibition [CLK];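 also: spheroids exposed to compounds for 7 days before readout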
Conditions: second compound 0.1 µM; first compound 0.0316 µM; stronger effect = lower value; spheroids with HUVEC and MSC
Just the number in %, nothing appended.

Incoming: Fill in: viability, T/C of O=C(c1cc(Cc2n[nH]c(=O)c3ccccc23)ccc1F)N1CCN(C(=O)C2CC2)CC1 + CNC(=O)c1ccc(Nc2nc(OC3CCCC3)c3c(-c4ccc5nc(C)oc5c4)c[nH]c3n2)c(OC)c1 is ___
Outgoing: 101

Incoming: Another molecule to check: C=CC(=O)N1CCN(c2nc(=O)n(-c3c(C)ccnc3C(C)C)c3nc(-c4c(O)cccc4F)c(F)cc23)C(C)C1 (stereo not given) + CN1CCN(c2cc(C(=O)Nc3cc4cc(-c5cnn(C)c5)ccc4cn3)ccn2)CC1
Outgoing: 87.6

Incoming: Moving on to COC1C=CCC(C)C(C)S(=O)(=O)NC(=O)c2ccc3c(c2)N(CC2CCC21)CC1(CCCc2cc(Cl)ccc21)CO3 (stereo not given) + CN1CCN(c2cc(C(=O)Nc3cc4cc(-c5cnn(C)c5)ccc4cn3)ccn2)CC1
Outgoing: 64.4

Incoming: Next up: O=C(c1cc(Cc2n[nH]c(=O)c3ccccc23)ccc1F)N1CCN(C(=O)C2CC2)CC1 + CN1CCN(c2cc(C(=O)Nc3cc4cc(-c5cnn(C)c5)ccc4cn3)ccn2)CC1
Outgoing: 75.8

Incoming: Repeat with C=C(F)C(=O)N1CCN(c2nc(OCC3CCCN3C)nc3c2CCN(c2cccc4cccc(Cl)c24)C3)CC1CC#N (stereo not given) + CN1CCN(c2cc(C(=O)Nc3cc4cc(-c5cnn(C)c5)ccc4cn3)ccn2)CC1
Outgoing: 75.4
